Measured logP, listed per entry.
# assay text: Partition coefficient (logP)
# Type: physicochemical
# test settings: octanol/water
Form: value (number only, do not type unit).

Take a look at these entries with their results.
molecule | logP
CCCCc1nc(Cl)c(C(=O)O)n1Cc1ccc(C2=C(c3nn[nH]n3)CCCCC2)cc1 | 5.37
CCCCc1nc(Cl)c(C(=O)O)n1Cc1ccc(C2=C(c3nnn[nH]3)CCC2)cc1 | 4.25

Now consider a different molecule.
Please report the recorded logP for CCCCc1nc(Cl)c(C(=O)O)n1Cc1ccc(-c2ccccc2-c2nn[nH]n2)cc1 [CARBOXYLIC ACID METABOLITE] .
4.92

* * *

Measured pIC50, listed per entry.
# test system: Type-1 angiotensin II receptor B (Rattus norvegicus, UniProt P29089)
# Sequence (P29089 whole entry): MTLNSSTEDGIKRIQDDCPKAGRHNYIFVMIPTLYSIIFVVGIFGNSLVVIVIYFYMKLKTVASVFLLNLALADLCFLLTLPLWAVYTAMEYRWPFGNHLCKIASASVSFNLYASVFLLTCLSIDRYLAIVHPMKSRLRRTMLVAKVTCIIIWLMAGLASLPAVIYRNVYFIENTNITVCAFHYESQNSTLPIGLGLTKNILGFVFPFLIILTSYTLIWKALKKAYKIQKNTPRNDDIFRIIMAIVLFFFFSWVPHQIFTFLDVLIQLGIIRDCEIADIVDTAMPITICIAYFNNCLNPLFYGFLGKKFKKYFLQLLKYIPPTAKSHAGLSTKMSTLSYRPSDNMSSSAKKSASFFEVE
Scale explanation: pIC50 corresponds to minus log10 of a concentration expressed in moles per litre.

Take a look at these entries with their results.
structure smiles string | test system | pIC50
CCCCc1nc(Cl)c(CO)n1Cc1ccc(C2=C(c3nnn[nH]3)CCC2)cc1 | Type-1 angiotensin II receptor B (Rattus norvegicus, UniProt P29089) | 5.46
CCCCc1nc(Cl)c(C(=O)O)n1Cc1ccc(C2=C(c3nn[nH]n3)CCCC2)cc1 | Type-1 angiotensin II receptor B (Rattus norvegicus, UniProt P29089) | 6.40

Now consider a different compound.
Please report the recorded pIC50 for `CCCCc1nc(Cl)c(C(=O)O)n1Cc1ccc(C2=C(c3nnn[nH]3)CCC2)cc1` .
6.51
